Biological target: M3 (Homo sapiens, UniProt P20309)
Sequence (P20309 whole entry): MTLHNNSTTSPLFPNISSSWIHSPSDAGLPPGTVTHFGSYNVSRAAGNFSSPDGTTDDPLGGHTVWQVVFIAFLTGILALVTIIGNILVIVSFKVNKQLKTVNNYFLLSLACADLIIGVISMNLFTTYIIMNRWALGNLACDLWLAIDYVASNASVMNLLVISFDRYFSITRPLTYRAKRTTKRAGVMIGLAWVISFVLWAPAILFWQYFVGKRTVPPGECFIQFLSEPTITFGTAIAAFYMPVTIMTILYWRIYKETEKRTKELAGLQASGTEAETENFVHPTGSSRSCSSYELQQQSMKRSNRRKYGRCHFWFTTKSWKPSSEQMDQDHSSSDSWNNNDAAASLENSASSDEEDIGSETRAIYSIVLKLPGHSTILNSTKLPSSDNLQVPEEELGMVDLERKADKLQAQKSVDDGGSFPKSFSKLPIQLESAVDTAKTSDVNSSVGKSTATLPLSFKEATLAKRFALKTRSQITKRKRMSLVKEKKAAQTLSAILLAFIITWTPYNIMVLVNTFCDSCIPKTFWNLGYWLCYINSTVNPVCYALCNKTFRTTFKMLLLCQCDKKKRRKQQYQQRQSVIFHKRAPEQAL
Assay: In vitro functional assay of muscarinic acetylcholine receptor activity, M3
Type: cell-based
Conditions: antagonist IC50 at M3; read-out: M3 IC50
Parameter IC50: see the listing below.
Property Name: IC50

- O=C(CCS(=O)(=O)c1cccc2ncsc12)N1CCC2(c3ccc(C(F)(F)F)cn3)CC2C1 (stereo not drawn): 1 to 10 µM
- C[C@H]1CN(c2cc(F)c(F)c(F)c2)CCN1C(=O)CCS(=O)(=O)c1cccc2ncsc12: 1 to 10 µM
- O=C(CCS(=O)(=O)c1cccc2ncsc12)N1CCN(c2ccnc(C(F)(F)F)c2)CC1: > 10 µM

====

Biological target: human M1 receptor (Homo sapiens, UniProt P11229)
Sequence (P11229 whole entry): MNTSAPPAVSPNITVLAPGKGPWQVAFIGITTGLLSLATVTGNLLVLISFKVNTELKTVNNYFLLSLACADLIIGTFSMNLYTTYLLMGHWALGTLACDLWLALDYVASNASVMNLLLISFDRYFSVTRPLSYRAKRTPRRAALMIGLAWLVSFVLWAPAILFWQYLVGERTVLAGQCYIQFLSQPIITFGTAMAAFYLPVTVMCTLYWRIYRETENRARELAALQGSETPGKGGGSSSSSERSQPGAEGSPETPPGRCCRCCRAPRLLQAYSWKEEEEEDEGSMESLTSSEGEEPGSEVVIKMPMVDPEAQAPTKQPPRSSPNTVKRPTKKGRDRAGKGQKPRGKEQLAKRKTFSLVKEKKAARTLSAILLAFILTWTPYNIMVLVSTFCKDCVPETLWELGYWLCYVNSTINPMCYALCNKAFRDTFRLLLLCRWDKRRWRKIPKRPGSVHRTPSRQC
Assay: In vitro functional assay of muscarinic acetylcholine receptor activity (aequorin calcium flux, antagonist mode vs EC80 acetylcholine), M1
Assay type: cell-based
pIC50: −log10 of the molar value.
# pIC50 values compiled below
Property Name: pIC50

• Cc1ccc(N2C3CCC2CN(C(=O)CCOCc2cccn4ncnc24)C3)nn1 [Example 189] = 6.00 to 7.00
• N#Cc1ccc(N2C3CCC2CN(C(=O)CCOCc2cccc4nccnc24)C3)nc1 [Example 37] = > 7.00
• O=C(COCc1cccc2ncccc12)N1C[C@H]2CC[C@@H](C1)N2c1ccc(F)cn1 [Example 1] = > 7.00
• COc1cnc2cccc(COCCC(=O)N3C[C@H]4CC[C@@H](C3)N4c3ccncc3F)c2c1 [Example 76] = > 7.00

====

Attribute: IC50
Biological target: human M1 receptor (Homo sapiens, UniProt P11229)
Experiment: In vitro functional assay of muscarinic acetylcholine receptor activity (aequorin calcium flux, antagonist mode vs EC80 acetylcholine), M1
Assay type: cell-based
Property Name: IC50

• N#Cc1ccc(N2C3CCC2CN(C(=O)CCN(Cc2cccc4ncnn24)C2CC2)C3)nc1 = < 100 nM
• N#Cc1ccc(N2CC3CCC(C2)N3C(=O)CCNCc2cccc3ncsc23)nc1 = 100 to 1000 nM
• O=C(CCS(=O)(=O)c1c(F)ccc2nccn12)N1CC2CCC(C1)N2c1ccc(F)cn1 = < 100 nM
• O=C(CCS(=O)(=O)c1cccc2nccn12)N1CC2CCC(C1)N2c1ccc(C(F)(F)F)cn1 = < 100 nM
• N#Cc1ccc(N2C3CCC2CN(C(=O)CCNCc2cccc4ncsc24)C3)nc1 = < 100 nM
• Cc1cc(F)cnc1N1[C@@H]2CC[C@H]1CN(C(=O)CCCc1cccc3ncccc13)C2 = 100 to 1000 nM
• O=C(CCNCc1c(F)ccc2nccn12)N1CC2CCC(C1)N2c1ccc(C(F)(F)F)cn1 = < 100 nM
• N#Cc1ccc(N2C3CCC2CN(C(=O)CCNCc2cccn4nccc24)C3)nc1 = 100 to 1000 nM

====

Target: M3 (Homo sapiens)
Assay: In vitro functional assay of muscarinic acetylcholine receptor activity, M3
Assay type: cell-based
Details: antagonist IC50 at M3; read-out: M3 IC50
// reported IC50 for each item listed
Property Name: IC50

* O=C(CCNCc1c(F)ccc2nccn12)N1CC2CCC(C1)N2c1ccc(C(F)(F)F)cn1 | > 10 µM
* O=C(CCS(=O)(=O)c1cccc2ncsc12)N1CC2CCC(C1)N2c1ccc(C(F)(F)F)cn1 | < 0.1 µM
* O=C(CC1CN(c2cccc3ncccc23)C1)N1C[C@H]2CC[C@@H](C1)N2c1ccc(F)cn1 | > 10 µM
* O=C(CCNCc1cccn2nccc12)N1CC2CCC(C1)N2c1ccc(Cl)cn1 | > 10 µM
* Cc1nc2cccc(S(=O)(=O)CCC(=O)N3C[C@H]4CC[C@@H](C3)N4c3ccncc3F)c2o1 | 1 to 10 µM
* N#Cc1ccc(N2C3CCC2CN(C(=O)CCNCc2cccc4ncccc24)C3)nc1 | > 10 µM
* N#Cc1ccc(N2C3CCC2CN(C(=O)CCCCc2cccc4ncsc24)C3)nc1 | 1 to 10 µM
* O=C(CCS(=O)(=O)c1cccc2ncsc12)N1CCN(c2ncc(C(F)(F)F)cn2)CC1 | 1 to 10 µM
* N#Cc1cc(N2C3CCC2CN(C(=O)CCNCc2c(F)ccc4nccn24)C3)ccc1F | > 10 µM
* N#Cc1ccc(N2C3CCC2CN(C(=O)CCNCc2c(F)ccc4nccn24)C3)nc1 | 1 to 10 µM
* O=C([C@H]1C[C@H](Oc2cccc3ncsc23)C1)N1CC2CCC(C1)N2c1ccc(F)cn1 | > 10 µM

====

Biological target: human M1 receptor (Homo sapiens, UniProt P11229)
Assay: In vitro functional assay of muscarinic acetylcholine receptor activity (aequorin calcium flux, antagonist mode vs EC80 acetylcholine), M1
Format: cell-based
Conditions: CHO-K1 cells stably expressing human M1 receptor with Aequorin; decrease in EC80 acetylcholine response; read-out: M1 IC50
Property Name: IC50

- C[C@H]1CN(c2ncc(F)cc2C#N)CCN1C(=O)CCCc1cccc2ncccc12: > 10000 nM
- O=C(C1CC1COc1cccc2ncsc12)N1C[C@H]2CC[C@@H](C1)N2c1ccncc1F (stereo partly shown): > 10000 nM
- Cc1cc(F)cnc1N1CCN(C(=O)CCCc2cccc3ncncc23)[C@@H](C)C1: < 100 nM
- Cc1cncc(Cl)c1N1CCN(C(=O)CCS(=O)(=O)c2cccc3ncsc23)[C@@H](C)C1: 100 to 1000 nM
- CC1CN(c2ccc(F)cn2)CCN1C(=O)[C@H]1C[C@H](Oc2cccc3ncsc23)C1 (stereo partly shown): > 10000 nM
- O=C(CCS(=O)(=O)c1cccc2ncsc12)N1CCN(c2ccnc(C(F)(F)F)c2)CC1: 1000 to 10000 nM
- Cc1cc(Cl)cnc1N1CCN(C(=O)CCNCc2cccc3nccn23)[C@H](C)C1: 1000 to 10000 nM
- O=C(CCCc1cccc2ncccc12)N1CCN(c2ccncc2F)CC1: 100 to 1000 nM
- N#Cc1ccc(N2C3CCC2CN(C(=O)COCc2cccc4ncnn24)C3)nc1: 1000 to 10000 nM
- O=C(CCS(=O)(=O)c1cccc2ncsc12)N1CCN(c2c(Cl)cncc2Cl)CC1: 1000 to 10000 nM
- O=C(CCS(=O)(=O)c1cccc2ncsc12)N1CCC2(c3ccc(C(F)(F)F)cn3)CC2C1 (stereo not shown): 100 to 1000 nM
- O=C(N1CC(Oc2cccc3cnccc23)C1)N1C[C@H]2CC[C@@H](C1)N2c1ccc(F)cn1: > 10000 nM
- O=C(CCS(=O)(=O)c1cccc2ncsc12)N1CCN(c2ccc(CO)cc2)CC1: 100 to 1000 nM
- C[C@@H]1CN(c2ccncc2Cl)CCN1C(=O)CCS(=O)(=O)c1cccc2ncsc12: < 100 nM
- O=C(CCS(=O)(=O)c1cccc2ncsc12)N1CCN(c2ccncc2F)CC1: 100 to 1000 nM
- O=C(CNCCc1cccn2nccc12)N1C[C@H]2CC[C@@H](C1)N2c1ccncc1F: 1000 to 10000 nM
- Cc1ccncc1N1CCN(C(=O)CCCc2cccc3ncccc23)[C@H](C)C1: < 100 nM
- Cc1cc(F)cnc1N1CCN(C(=O)CCCc2cccc3nccn23)[C@@H](C)C1: 1000 to 10000 nM
- Cc1cc(F)cnc1N1C[C@H]2C[C@@H]1CN2C(=O)CCCc1cccc2ncccc12 (racemic): 1000 to 10000 nM
- O=C(CCS(=O)(=O)c1cccc2ncsc12)N1CC=C(c2ccc(C(F)(F)F)cn2)CC1: < 100 nM
- O=C(CCS(=O)(=O)c1cccc2ncsc12)N1CCN(c2ncc(C(F)(F)F)cn2)CC1: 1000 to 10000 nM
- O=C(CCCc1cccc2ncccc12)N1C[C@H]2C[C@@H]1CN2c1ccc(F)cn1 (racemic): 100 to 1000 nM

====

Target: M2 (Homo sapiens)
Sequence (P08172 whole entry): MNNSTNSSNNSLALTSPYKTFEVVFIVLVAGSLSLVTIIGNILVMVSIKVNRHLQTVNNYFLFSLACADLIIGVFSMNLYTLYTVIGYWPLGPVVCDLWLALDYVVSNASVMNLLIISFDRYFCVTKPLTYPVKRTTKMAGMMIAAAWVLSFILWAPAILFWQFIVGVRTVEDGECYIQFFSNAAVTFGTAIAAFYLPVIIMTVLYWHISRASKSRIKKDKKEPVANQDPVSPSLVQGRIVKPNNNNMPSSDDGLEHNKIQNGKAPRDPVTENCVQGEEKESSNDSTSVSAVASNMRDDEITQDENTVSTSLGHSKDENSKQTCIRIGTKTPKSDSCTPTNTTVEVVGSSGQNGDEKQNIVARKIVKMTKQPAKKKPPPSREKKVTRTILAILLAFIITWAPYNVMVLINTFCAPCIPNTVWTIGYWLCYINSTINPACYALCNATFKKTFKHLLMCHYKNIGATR
Experiment: In vitro functional assay of muscarinic acetylcholine receptor activity, M2
Format: cell-based
Conditions: antagonist IC50 at M2; read-out: M2 IC50
Listed here: items and their measured IC50.
Property Name: IC50

- Cc1cc(F)cnc1N1CCN(C(=O)CCS(=O)(=O)c2cccc3ncsc23)[C@@H](C)C1: 1000 to 10000 nM
- O=C(CCS(=O)(=O)c1cccc2ncsc12)N1CCC2(c3ccc(C(F)(F)F)cn3)CC2C1 (stereo not shown): 1000 to 10000 nM
- Cc1cc(F)cnc1N1CCN(C(=O)CCCc2cccc3ncccc23)CC1C (stereo not shown): 100 to 1000 nM
- Cc1cc(F)cnc1N1CC(C)N(C(=O)CCS(=O)(=O)c2cccc3ncsc23)C(C)C1 (stereo not shown): 100 to 1000 nM
- N#Cc1ccc(N2CC3CCC(C2)N3C(=O)CCNCc2cccc3ncsc23)nc1: 1000 to 10000 nM
- Cc1cc(C(F)(F)F)ncc1N1CCN(C(=O)CCS(=O)(=O)c2cccc3ncsc23)[C@@H](C)C1: 100 to 1000 nM
- N#Cc1ccc(N2C3CCC2CN(C(=O)CCNCc2cccn4nccc24)C3)nc1: 1000 to 10000 nM
